System: MS2 coat protein
TEST PROTOCOL: apparent KD of MS2 coat protein; designed switch direction (-1 OFF switch, 1 ON switch): -1; higher = weaker reporter binding
SETTINGS: Eterna round: R95; input ligand: none
MEASURE: apparent KD of MS2 coat protein (nM)
Answers are plain numbers, in nM.

[[record]]
sequence = "AGUACUAACACGAAAGUGUUAGUACAAUAAGCUUGUGAAACAUGAGGAUCACCCAUGUCCUCAUCAGCUCGUCUUAU [salish99_TOv2_r3_052] (puzzle: Sensor v3, turn-off variant 2)"
reported = 191


Could you tell me apparent KD of MS2 coat protein for each of these sequences? They are listed below.
1. GCGAAAGCAAACAGGUGAAACAUGAGGAUCACCCAUGUCCUCAUUUGCUCGUCUUAUAAGCUAUGCGAAAGCAUAGC [Sensor 3, v1 - 8] (puzzle: Sensor v3, turn-off variant 1)
2. CGAAGUAGAAACCGAUCCUACAUGAGGAUCACCCAUGUAGCAAGACGUGCACGCGAAGCUCGUCAGACUACCAGAAG [salish99_TOv1_r3_004] (puzzle: Sensor v3, turn-off variant 1)
3. GAUUAUGCGAGCUUUAGGGACAUGAGGAUCACCCAUGUUCGUCUUAUUAAUCUGGGUACACUAGCAUACCUAAAUCU [JMF 8] (puzzle: Sensor v3, turn-off variant 1)

1: 109; 2: 332; 3: 30.5

Could you tell me apparent KD of MS2 coat protein for each of these sequences? They are listed below.
1. AAAUAAUAGAUAAAAUAAAACAUGAGGAUCACCCAUGUGGGAUGAUGAGGGUGAAACAAGCUUUUUGCUCGUCUUAU (puzzle: Sensor v3, turn-off variant 1)
2. AAGAAACAUGAGGAUCACCCAUGUGAGGAUAUAGAAAAGAAAGAAAGAAAGAAAGAAACUAGAAGGCACAAAGA [It's All Mine] (puzzle: Exclusion 1)
3. GAGAAACAUGAGGAUCACCCAUGUGAGGAUAUGAAAAAGAAAAGAAAAGAAAGAAGAAUCAGAAGGCACAAAGA [salish99-ex1_r3_084] (puzzle: Exclusion 1)
4. CGUGACUCAGGAUAUCUAUUGUAUCACAUGAGGAUCACCCAUGUCCAGCGAAAGCUGGAGGGAGAAGGGAGUCACG [Fiskers Ex 5 - 46] (puzzle: Exclusion 5)
5. GGUUGGCGAGGAUAUACAUGAGGAUCACCCAUGUGAGAGAAAAAAGUGAGGAAGCAAAGUAGAAGGCGCUGACG [salish99_ex3_r3_034] (puzzle: Exclusion 3)

439
26.1
38.9
186
77.8

Could you tell me apparent KD of MS2 coat protein for each of these sequences? They are listed below.
1. AGUGGGCUAGGAUAUCGAUGAACUCACAUGAGGAUCACCCAUGUGUCUUCGGUGGGCGCGCGAGAAGGAGUGAGAU [Belaange] (puzzle: Exclusion 5)
2. CAUUACUGCAGGCUUUGGGACAUGAGGAUCACCCAUGUUCGUCUUAUUGAUCUAGGUACGCUGACGUACCUAGAUCU [JL-sv1-2.26 Brourd mod] (puzzle: Sensor v3, turn-off variant 1)

[37.9, 15.1]

* * *

Test system: MS2 coat protein
TEST PROTOCOL: apparent KD of MS2 coat protein; designed switch direction (-1 OFF switch, 1 ON switch): 1; higher = weaker reporter binding
SETTINGS: input ligand: FMN 200 uM
Quick rule for you: apparent KD of MS2 coat protein at 100 nM or higher means T, lower means F.

Examples from the recorded data:
[[record]]
sequence = "CUGAGCAAUCUAGGAUAUCACGUCGAUUAGACGUGAGAAGGAGAUCAUAACAUGAGGAUCACCCAUGUAUUACAUGAAGCUCAG [SSNG1/7-A2] (Eterna round: R96, puzzle: Same State NG 1)"
tested_system = "MS2 coat protein"
assigned_category = "F"

[[record]]
sequence = "GGUAGGUUACUACCAAACAUGAGGAUCACCCAUGUAAAUGGGAAGGAUAUGGUACCUAUUUGGUACCAGAAGGUCCAAAUAAUU [Mat - Same State NG 3 - JL Mod - D95] (Eterna round: R96, puzzle: Same State NG 3)"
tested_system = "MS2 coat protein"
assigned_category = "T"

[[record]]
sequence = "GCUAGAAUUAAAGCCAACAUGAGGAUCACCCAUGUAUGUUGGCAGGAUAUCGUUUGCAAAGCAAACGAGAAGGGCUAAACUAGC [Mat - Same State NG 3 - JL Mod - D4] (Eterna round: R96, puzzle: Same State NG 3)"
tested_system = "MS2 coat protein"
assigned_category = "T"

[[record]]
sequence = "CAUCCCUCCACAGGAUAUCGACCAAUAAAACGGCGAGAAGGGUGGCCACAUGAGGAUCACCCAUGUGGAAUUGGAUGAACUACC [Atusmaceor] (Eterna round: R96, puzzle: Same State NG 1)"
tested_system = "MS2 coat protein"
assigned_category = "T"


Now examine the next entry.
Could you verify whether the entry GAGGGCGAAAGCGACAUGAGGAUCACCCAUGUCCUCGGAGGACAGGAUAUCCGGCAAAAGCCGAAGGAGAAGGGUCGAAAAGAA [AK SSNG3-V2-37] (Eterna round: R96, puzzle: Same State NG 3) shows apparent KD of MS2 coat protein of no less than 100 nM?
F

* * *

System: MS2 coat protein
TEST PROTOCOL: apparent KD of MS2 coat protein; designed switch direction (-1 OFF switch, 1 ON switch): -1; higher = weaker reporter binding
SETTINGS: input ligand: none
Provide the recorded apparent KD of MS2 coat protein for the entries that follow.
Give bare numbers, in nM.

[[record]]
sequence = "UAUUGCAAGUGAGGAUAUGACAUGAGGAUCACCCAUGUAAAGGGAGUUGGCUAUAUAGCAAGAUUUCAGAAGGCACUACUGUAU [JR_ExcNG2_Sub006] (Eterna round: R96, puzzle: Exclusion NG 2)"
reported = 56.3

[[record]]
sequence = "GAGAUACAUGAGGAUCACCCAUGUGAGGAUAUGAGUCAGUCACGGUGACGUGGCUGACUCAGAAGGCACAAAGG [Mat - Exclusion 1 - JL Mod - D35] (Eterna round: R97, puzzle: Exclusion 1)"
reported = 150

[[record]]
sequence = "CCUUGGUGAGGAUAUUGAAAAUCUGUCAUAUGCCGACAACUCAAGAAGGUACAUGAGGAUCACCCAUGUUGGGC [Eternabot (Original) Solution 18] (Eterna round: R97, puzzle: Exclusion 4)"
reported = 102

[[record]]
sequence = "CGAAGAUGAGGAUAUGCUACAGACAUGUUCGCGCAGAAGUAACAUGAGGAUCACCCAUGUAGAAGGCAUCUUUU [Eternabot (L2) Solution 88] (Eterna round: R97, puzzle: Exclusion 2)"
reported = 35.9


Specify reported apparent KD of MS2 coat protein for the sequence shown: GCGGACAAGAUGGCGACAUCAGAGACAUGAGGAUCACCCAUGUAGGAUAUCGAUUCGAAACGAAUCGAGAAGGGCAUAGUCCGC [JL denovo 34] (Eterna round: R96, puzzle: Exclusion NG 3)
16.7

* * *

Tested on: MS2 coat protein
TEST PROTOCOL: apparent KD of MS2 coat protein; designed switch direction (-1 OFF switch, 1 ON switch): -1; higher = weaker reporter binding
SETTINGS: input ligand: FMN 200 uM
MEASURE: apparent KD of MS2 coat protein

[[record]]
sequence = "AGUACUAACACGAAAGUGUUAGUACAAAUGAGCUUUUGAACAUGAGGAUCACCCAUGUCCUCAUAAGCUCGUCUUAA [Mat - Sensor v2 - var 2 - Mod - D174] (Eterna round: R96, puzzle: Sensor v2, turn-off variant 2)"
measure = "apparent KD of MS2 coat protein"
reported = "27.4 nM"


Please look at the following sequence next.
Specify reported apparent KD of MS2 coat protein for the sequence shown: UAAGAAUACUGAGGAUAUGCUAGUUUAUCUCAAGCAGAAGGCGGACUCAACAUGAGGAUCACCCAUGUAAGACGGGUACUAGAU [Ex NG1 #13] (Eterna round: R96, puzzle: Exclusion NG 1)
319 nM

* * *

Tested on: K4 kissing-loop RNA reporter;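 further: bound reporter read as fluorescence of individual clusters on recovered sequencing chips by microscopy, with normalized cluster intensities fitted with a binding model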
TEST PROTOCOL: apparent KD of K4 kissing-loop reporter; higher = weaker reporter binding
SETTINGS: Eterna round: R107; input ligand: theophylline 20 uM
Provide the recorded apparent KD of K4 kissing-loop reporter for the entries that follow.
One number for each entry, in µM.

[[record]]
sequence = "UUUUUCGCGUUUGAUACCAGCAGAGUUGUUCUUGUCUGGAACAUGAGUGAUGUUCAUGUCUGCCCUUGGCAGCAAACGGGAGAAG [KL-XTheo-B12]"
reported = 0.114

[[record]]
sequence = "UACAGGGAUAGUGAUGUUAUCCCAUGUGAUACCAGUGCCAUCCAACACCCUUGGCAGCAUACGGGCAGUGAUGUUGUUCUUGGUA [#16 K4 Theophylline A Exclusion]"
reported = 0.0861

[[record]]
sequence = "GGGCGCGGCGCGGCCGCCACUGCGCCUGGGUGCUCGCUGAGUGAUGUUCGUCGGCGGUUGGGUGGUAGGACCGGGUGCUGGCCGG [BDazzled - #13 SS Tryptophan B]"
reported = 0.522

[[record]]
sequence = "AGACUACCACACUGUCAAUAGACAGUGAGCUAGGAUAUGCUGAUAAGCAGAAGGAGUGAUGUUCCUCGGUAGUCAAUAAAAUAAU [FmnAX 13 G29+C67]"
reported = 0.503

[[record]]
sequence = "ACGACGCAUAGUGAUACCAGCAUUAUAUGAGUGAUGUUCUACCUAAAAUGGUAAUAAUUAUGCCCUUGGCAGCACUAUGCGUCAG [KL-SSTheoB3]"
reported = 0.501


Could you tell me apparent KD of K4 kissing-loop reporter for each of these sequences? They are listed below.
1. GCUCAGGAGUGAUGUUCCAAGUGGUGUUAACGAGGACCGGUACGGCCGCCACUCGAUACGGCCGGACCGUAGGAUAAACUAGAGC [Same State - Tryptophan A (Freestyle 11)]
2. UGUCAUUGGUCGGAUACCAGUUGAUGACGAAUACGUCAACUGGAGUGAUGUUCCUAAAACAACCCUUGGCAGCCGACCGAUGACU [MAT - Same State Theophlline B - Mod of Eli - D1]

1. 0.28
2. 0.666

Could you tell me apparent KD of K4 kissing-loop reporter for each of these sequences? They are listed below.
1. GGAUCCACCAGUGAUGUUGGAGAAAACUCUAAGGAUAUGACGAAAGUCAGAAGGUGGUAGACUGGACAAAGUCCGGUAGGAUCCA [FmnA10 U30+A78]
2. UGACUGGACUGAAGGAGCGCGCGAGACAAAGUCUCGAACUGCUAGUGAUGUUAGCGAAUAACGCAGGUAGGUCGCAGUCUAGUCU [ArgBS 14 #SwitchBubble #StaticStem]
3. CCACAAUAUGGAAGGAGCGCCAGUGAUGUUGGUGCUUGCUUUAGGUAAGACCGGCCUAUUUGGCAGGUAGGUCGCCAUAUUCAAC [Ageat]
4. UACAAACGUAGUGAUGUUACGUACUCUGAUACCAGACAACUCUAAGUCCCUUGGCAGCAGUCACUUAGCUUAUUAUUUUCUCAAA [JR_Nu_ExcTheophyA_Sub026]
5. GGGUUGAGCGGAAGGAGCGGCUGAACCAGUGAUGUUGGUUAAUCCAAGUGAUGUUGGAAAAGCCAGGUAGGUCGCCGCUUUAUCC [Same State Arg B GF 3]

0.216
0.155
0.089
0.13
0.965
